# assayed target: T1, RXFP1 receptor (UniProt Q9HBX9 1-757, limits assumed)
# T1 sequence (looked up): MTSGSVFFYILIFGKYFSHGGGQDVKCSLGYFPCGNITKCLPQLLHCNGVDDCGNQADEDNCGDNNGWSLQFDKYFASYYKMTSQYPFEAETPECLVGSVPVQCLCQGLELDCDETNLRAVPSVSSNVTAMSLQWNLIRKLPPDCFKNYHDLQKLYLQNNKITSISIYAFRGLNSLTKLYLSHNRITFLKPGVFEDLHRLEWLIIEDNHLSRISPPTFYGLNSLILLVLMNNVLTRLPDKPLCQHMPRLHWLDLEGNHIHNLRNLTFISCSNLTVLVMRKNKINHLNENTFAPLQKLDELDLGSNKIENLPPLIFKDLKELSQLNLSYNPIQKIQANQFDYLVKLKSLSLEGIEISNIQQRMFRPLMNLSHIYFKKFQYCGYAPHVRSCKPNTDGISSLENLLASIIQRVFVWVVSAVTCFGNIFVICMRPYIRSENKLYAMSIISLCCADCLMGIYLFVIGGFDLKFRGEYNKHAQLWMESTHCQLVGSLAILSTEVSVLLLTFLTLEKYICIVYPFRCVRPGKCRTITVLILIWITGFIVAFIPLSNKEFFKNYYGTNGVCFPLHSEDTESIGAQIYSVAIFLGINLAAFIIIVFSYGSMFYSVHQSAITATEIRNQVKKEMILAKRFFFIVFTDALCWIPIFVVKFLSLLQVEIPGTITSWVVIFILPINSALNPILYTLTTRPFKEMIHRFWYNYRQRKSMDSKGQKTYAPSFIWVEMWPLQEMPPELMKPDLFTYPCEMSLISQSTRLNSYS
# method summary: cell-based or functional assay
*1 amine or outer side, *2 acyl side, *3 side chain or, on linkers, in order; H or OH if unused. Primed or numbered codes have the meaning given here. Side-chain parts run from the residue outwards. [ ]: non-standard residue; d: D form. The star is where a group is joined. PEG4′ = 2-[2-[2-[2-[2-aminoethoxy]ethoxy]ethoxy]ethoxy]propanoyl; γGlu = O=C(O)[C@H](CCC(=O)[*:2])N[*:1]; Stearoyl = CCCCCCCCCCCCCCCCCC(=O)*; Palmitoyl = CCCCCCCCCCCCCCCC(=O)*; Nle = CCCC[C@H](N)C(=O)O; PEG2′ = PEG2 spacer unit; Aib = CC(C)(N)C(=O)O
assay readout: EC50 (nM), OVCAR 5 cells (cAMP)
Your answer is read as nM, so omit the unit and give the number.

Ac-LEGREKVRAK(Ac)I[Aib][Aib]EG[Nle]STWS[Aib]RKK(Ac)[PEG4′]K([γGlu-γGlu-γGlu-Stearoyl])-NH2 [peptide of SEQ ID NO: 123] ... 0.38

So what does the record say about EC50 (nM), OVCAR 5 cells (cAMP) for Ac-LEGREKVRAK(Ac)I[Aib][Aib]EG[Nle]STFS[Aib]RKK(Ac)K([PEG2′-PEG2′-PEG2′-PEG2′-γGlu-γGlu-γGlu-Palmitoyl])-NH2 [peptide of SEQ ID NO: 153] ?
0.26
